- tested_on: MMP-13 (Homo sapiens, UniProt P45452)
- Construct: made in house; host or cells: baculovirus / insect cells
- assay_protocol: In vitro MMP inhibition, Ki determination (fluorogenic substrate II)
- Format: biochemical
- settings: value outside parentheses; read-out: MMP-13 Ki
- Experimental: Several hydroxamic acids and salts thereof were analyzed in in vitro assays to determine their ability to inhibit the MMP cleavage of peptide substrates. […] and IC50 constants were calculated from the assayed hydroxamic acid-MMP interactions. […] The assays from which the Ki determinations were made were performed as follows. […] In the absence of MMP inhibitory activity, substrate II was cleaved at the Gly-Leu bond resulting in an increase of relative fluorescence. […]
pKi: −log10 of the molar value.
property_label: pKi

compound: CCCCCc1cccc(N2CCN(S(=O)(=O)C3(C(=O)NO)CCOCC3)CC2)c1 [Example 356]
property_label: pKi
readout_number: 7.45

compound: CCc1ccc(N2CCN(S(=O)(=O)C3(C(=O)NO)CCCC3)CC2)nc1 [Example 261]
property_label: pKi
readout_number: 9.34

compound: CCCCOc1ccc(N2CCN(S(=O)(=O)C3(C(=O)NO)CCN(c4ccc(C(F)(F)F)cn4)CC3)CC2)cc1 [Example 257]
property_label: pKi
readout_number: 7.89

compound: CCCCOc1ccc(N2CCN(S(=O)(=O)C3(C(=O)NO)CCN(C(C)=O)CC3)CC2)cc1 [Example 282]
property_label: pKi
readout_number: 9.57

compound: O=C(NO)C1(S(=O)(=O)N2CCN(c3ncc(-c4ccccn4)s3)CC2)CCOCC1 [Example 387]
property_label: pKi
readout_number: 7.51

[a] O=C(NO)C1(S(=O)(=O)N2CCC(N3CCN(c4ccc(Cl)cc4)CC3)CC2)CCOCC1 [Example 315]
[b] O=C(NO)C1(S(=O)(=O)N2CCC(c3ccc(OCCC(F)(F)F)cn3)CC2)CCOCC1 [Example 418]
Data request: Lab note: check whether a or b has the lower measured pKi. Identify your selection by its label.
Data returned: a

---

- tested_on: MMP-14 (Homo sapiens, UniProt P50281)
- Construct: The catalytic domain enzyme was expressed in E. coli inclusion bodies, solubilized in urea; made in house
- assay_protocol: In vitro MMP inhibition, Ki determination (fluorogenic substrate II)
- Format: biochemical
- settings: value outside parentheses; read-out: MMP-14 Ki
- Procedure: Several hydroxamic acids and salts thereof were analyzed in in vitro assays to determine their ability to inhibit the MMP cleavage of peptide substrates. […] and IC50 constants were calculated from the assayed hydroxamic acid-MMP interactions. […] The assays from which the Ki determinations were made were performed as follows. […] In the absence of MMP inhibitory activity, substrate II was cleaved at the Gly-Leu bond resulting in an increase of relative fluorescence. […]
pKi: −log10 of the molar value.
property_label: pKi

line_notation: CCCCOc1ccc(N2CCN(S(=O)(=O)C3(C(=O)NO)CCN(CCOC)CC3)CC2)c(F)c1
tested_on: MMP-14 (Homo sapiens, UniProt P50281)
pKi: 5.56
--
line_notation: O=C(NO)C1(S(=O)(=O)N2CCN(c3ncc(-c4ccc([N+](=O)[O-])cc4)s3)CC2)CCOCC1
tested_on: MMP-14 (Homo sapiens, UniProt P50281)
pKi: 7.56
--
line_notation: CCCCOc1ccc(N2CCN(S(=O)(=O)C3(C(=O)NO)CCN(C(=O)c4ccncc4)CC3)CC2)cc1
tested_on: MMP-14 (Homo sapiens, UniProt P50281)
pKi: 5.58
--
line_notation: O=C(NO)C1(S(=O)(=O)N2CCC(c3ccc(-c4ccccc4)cn3)CC2)CCOCC1
tested_on: MMP-14 (Homo sapiens, UniProt P50281)
pKi: 5.89
--
line_notation: CCCCOc1ccc(N2CCN(S(=O)(=O)C3(C(=O)NO)CCN(C(=O)COC)CC3)CC2)cc1
tested_on: MMP-14 (Homo sapiens, UniProt P50281)
pKi: 5.86

[A] CCc1ccc(N2CCN(S(=O)(=O)C3(C(=O)NO)CCCCC3)CC2)nc1
[B] CCCCOc1ccc(N2CCN(S(=O)(=O)C3(C(=O)NO)CCN(C(=O)N(C)C)CC3)CC2)cc1
Data request: Dear colleague, could you let me know whether A or B has the lower recorded pKi? Thanks. Select an item and report its label.
Data returned: B
(B: 6.07, A: 7.47)

[A] CCCCOc1ccc(N2CCN(S(=O)(=O)C3(C(=O)NO)CCN(C(=O)C4CC4)CC3)CC2)cc1
[B] CCCCOc1ccc(N2CCN(S(=O)(=O)C3(C(=O)NO)CCN(C(=O)CCCC)CC3)CC2)cc1
Data request: I'm curious whether A or B has the smaller pKi number. Which is it? Give the label of your selection.
Data returned: B

[P] CCCCOc1ccc(N2CCN(S(=O)(=O)C3(C(=O)NO)CCN(C(=O)c4ccccn4)CC3)CC2)cc1
[Q] CCCC#Cc1cnc(N2CCN(S(=O)(=O)C3(C(=O)NO)CCOCC3)CC2)s1
Data request: Which shows the larger pKi value: P or Q ? To answer, give the label that identifies your chosen option.
Data returned: Q

[a] O=C(NO)C1(S(=O)(=O)N2CCN(c3ccc(Br)cn3)CC2)CCOCC1
[b] CCC=C1CCN(S(=O)(=O)C2(C(=O)NO)CCOCC2)CC1
Data request: Which value of pKi is greater, the one for a or the one for b ? State your choice using its label.
Data returned: a
(a: 7.87, b: 6.71)
